target: human KHK-A (Homo sapiens (Human), UniProt P50053); test: KHK Biochemical Assay (IC50), ADP-Glo, KHK-A; conditions: ADP-Glo; average of at least two separate assays
Sequence (P50053 other isoform, or with tags, fused parts or gaps): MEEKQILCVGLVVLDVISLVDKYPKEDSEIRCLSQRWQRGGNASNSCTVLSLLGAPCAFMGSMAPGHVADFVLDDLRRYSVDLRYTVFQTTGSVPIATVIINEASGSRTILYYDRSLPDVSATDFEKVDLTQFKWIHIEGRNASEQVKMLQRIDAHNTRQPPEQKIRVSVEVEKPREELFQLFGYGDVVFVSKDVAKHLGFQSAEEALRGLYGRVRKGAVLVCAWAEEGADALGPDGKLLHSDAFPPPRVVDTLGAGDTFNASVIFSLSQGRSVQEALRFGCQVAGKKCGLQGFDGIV
pIC50: −log10 of the molar value.
Hi, to clarify the labels: YES covers pIC50 from 7 upward, NO covers anything below 7.

Sample answers from the record:
* C[C@H]1CCN1c1nc2c(c(-c3ccccc3)n1)CC(C1CC1)C2 (some centres unmarked) [Example 30] | NO
* Cc1nc2cc(-c3nc(N4CC[C@@H]4C)nc4c3CCC4)ccc2s1 [Example 110] | NO
* C[C@H]1CCN1c1nc2c(c(-c3ccc(C(N)=O)c(Cl)c3)n1)CCC2 [Example 303] | YES
* C[C@H]1CCN1c1nc2c(c(-c3ccc4c(c3)S(=O)(=O)CNC4=O)n1)CCC2 [Example 234] | YES

Continue with the molecule presented below.
Prompt line: Confirm if pIC50 reported for the molecule C[C@H]1CCN1c1nc2c(c(-c3ccc4[nH]cnc4c3)n1)CCC2 [Example 852] is 7 or above.
Response line: YES

---

target: KHK-C expressed in NRK-52E cells (Homo sapiens (Human)); assay: KHK-C Cell-based Assay (EC50), NRK CTG, fructose-mediated ATP-depletion
Sequence (P50053 whole entry): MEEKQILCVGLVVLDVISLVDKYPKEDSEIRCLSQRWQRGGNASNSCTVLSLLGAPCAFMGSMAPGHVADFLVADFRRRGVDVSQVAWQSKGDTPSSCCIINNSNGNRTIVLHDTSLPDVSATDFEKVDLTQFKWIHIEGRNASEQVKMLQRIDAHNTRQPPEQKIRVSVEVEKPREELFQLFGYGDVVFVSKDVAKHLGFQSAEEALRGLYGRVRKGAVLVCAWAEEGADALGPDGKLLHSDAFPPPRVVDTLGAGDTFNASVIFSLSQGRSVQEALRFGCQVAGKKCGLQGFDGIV
MEASURED QUANTITY: EC50 (nM)
Answer with a number only, understood to be in nM.

Solved entries:
- C[C@H]1CCN1c1nc2c(c(-c3cc[nH]n3)n1)CCC2: 144
- Cc1ncc(-c2nc(N3CC[C@@H]3C)nc3c2CCC3)s1: 142
- C[C@H]1CCN1c1nc(-c2ccc(C(N)=O)cc2)c2[nH]ncc2n1: 2510
- C[C@H]1[C@H](O)CN1c1nc2c(c(-c3ccc(CNS(C)(=O)=O)cc3)n1)CCC2: 431
- C[C@H]1CCN1c1nc2c(c(-c3cc4cccc(C(N)=O)c4[nH]3)n1)CCC2: 34

API: the following record is the query input.
Prompt line: EC50 lookup needed for COc1ccc(-c2nc(N3C[C@@H](O)[C@@H]3C)nc3c2CCC3(F)F)cc1S(C)(=O)=O , thanks.
Response line: 34.6

---

Here the recorded IC50 is given for each entry.
molecular target: human KHK-A (Homo sapiens (Human)); test: KHK Biochemical Assay (IC50), ADP-Glo, KHK-A; conditions: ADP-Glo; average of at least two separate assays
Number only, in nM; omit the unit.

Past entries and their recorded results:
* C[C@H]1CCN1c1nc2c(c(-c3ccc4c(c3)NC(=O)CNC4)n1)CCC2 | 84.9
* C[C@H]1CCN1c1nc2c(c(-c3cccc(CN4CCCCC4)c3)n1)CCC2 | 12.6
* C[C@H]1CCN1c1nc2c(c(-c3cc(NS(C)(=O)=O)cc(C(N)=O)c3)n1)CCC2 | 42.8
* C[C@H]1CCN1c1nc2c(c(-c3cccc(CN4CCC4)c3)n1)CCC2 | 22.7
* C[C@H]1CCN1c1nc2c(c(-c3ccc4c(c3)CC(C(F)(F)F)C4NS(C)(=O)=O)n1)CCC2 (some centres unmarked) | 1780

Prompt line: Quick one: IC50 of C[C@H]1CCN1c1nc2c(c(-c3cccc([C@@H]4C[C@H]4C(=O)O)c3)n1)CCC2 (single isomer, unassigned) ?
Response line: 8.9

Prompt line: I am curious: what IC50 value has been reported for C[C@H]1CCN1c1nc(-c2cccc(C(N)=O)c2)c2c(n1)[C@H]1CC[C@@H]2C1 ?
Response line: 1920

Prompt line: Which value of IC50 has been reported for C[C@H]1CCN1c1nc2c(c(-c3ccc4c(c3)C(NS(C)(=O)=O)CCO4)n1)CCC2 (some centres unmarked) in the records?
Response line: 21

Prompt line: Please give the measured IC50 for this compound: C[C@H]1CCN1c1nc2c(c(-c3cccc(C#N)c3)n1)CCC2
Response line: 439

Prompt line: Item C[C@H]1CCN1c1nc(-c2cccc(S(N)(=O)=O)c2)c2c(n1)C(F)(F)CC2 has what recorded IC50?
Response line: 4.8

Prompt line: What value of IC50 has been reported for the following compound? C[C@H]1[C@H](F)CN1c1nc2c(c(-c3ccc(C(N)=O)s3)n1)CCC2
Response line: 5.8

---

molecular target: human OATP1B1 (Homo sapiens (Human), UniProt Q9Y6L6)
Sequence (Q9Y6L6 whole entry): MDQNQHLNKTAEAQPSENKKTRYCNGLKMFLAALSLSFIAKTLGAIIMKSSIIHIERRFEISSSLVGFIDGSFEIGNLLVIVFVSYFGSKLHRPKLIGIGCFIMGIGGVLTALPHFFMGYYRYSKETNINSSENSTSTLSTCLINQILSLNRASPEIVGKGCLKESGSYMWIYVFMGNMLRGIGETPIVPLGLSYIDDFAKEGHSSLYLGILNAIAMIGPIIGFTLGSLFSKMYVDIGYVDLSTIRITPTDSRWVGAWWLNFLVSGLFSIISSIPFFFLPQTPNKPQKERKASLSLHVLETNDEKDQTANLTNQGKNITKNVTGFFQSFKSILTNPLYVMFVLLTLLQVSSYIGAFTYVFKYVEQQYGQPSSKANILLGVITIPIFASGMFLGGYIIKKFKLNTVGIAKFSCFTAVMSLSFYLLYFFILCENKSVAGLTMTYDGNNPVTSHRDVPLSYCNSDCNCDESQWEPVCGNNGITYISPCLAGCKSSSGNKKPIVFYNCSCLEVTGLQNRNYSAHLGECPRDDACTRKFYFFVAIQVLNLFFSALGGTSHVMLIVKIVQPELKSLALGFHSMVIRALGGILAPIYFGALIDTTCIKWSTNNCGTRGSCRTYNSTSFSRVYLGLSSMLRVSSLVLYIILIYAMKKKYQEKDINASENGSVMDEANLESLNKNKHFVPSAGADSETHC
pIC50: −log10 of the molar value.
Lab note: anything with pIC50 at or over 6 counts as Yes; the rest go in No.

These solved cases illustrate the format of a correct answer.
• C[C@H]1[C@H](O)CN1c1nc(-c2ccc3c(c2)S(=N)(=O)CC3)c2c(n1)C(F)(F)CC2 (stereo partly drawn) = No
• C[C@H]1[C@H](O)CN1c1nc2c(c(-c3ccc(C4(N)COC4)cc3)n1)CCC2 = No
• C[C@H]1[C@H](F)CN1c1nc(-c2ccc3c(c2)S(=O)(=O)CCNC3)c2c(n1)C(F)(F)CC2 = Yes
• C[C@H]1[C@H](O)CN1c1nc(-c2ccc3c(c2)S(=O)(=O)NC3)c2c(n1)C(F)(F)CC2 = No
• C[C@H]1[C@H](O)CN1c1nc(-c2ccc(S(C)(=N)=O)cc2)c2c(n1)C(F)(F)CC2 (stereo partly drawn) = No

Prompt line: Item C[C@H]1CCN1c1nc2c(c(-c3ccc4c(=O)[nH]cnc4c3)n1)CCC2 with pIC50 of 6 or above?
Response line: Yes

Prompt line: Textbook exercise: given the entry N#C[C@H]1CCN1c1nc(-c2ccc(C3(N)COC3)cc2)c2c(n1)C(F)(F)CC2 , state whether its pIC50 is greater than or equal to 6.
Response line: No

Prompt line: hey, is pIC50 for this one >= 6? C[C@H]1CCN1c1nc2c(c(-c3cc4cc[nH]c(=O)c4s3)n1)CCC2
Response line: Yes

Prompt line: Hi, just wondering whether NC1(c2ccc(-c3nc(N4CC[C@@H]4C(F)(F)F)nc4c3CCC4(F)F)cc2)CS(=O)(=O)C1 shows pIC50 of 6 or higher.
Response line: No

Prompt line: Is it the case that C[C@H]1[C@H](O)CN1c1nc(-c2ccc3c(c2)OCC3NS(C)(=O)=O)c2c(n1)C(F)(F)CC2 (mixture of isomers) has pIC50 reaching or exceeding 6?
Response line: No

---

target: human KHK-A (Homo sapiens (Human)); assay: KHK Biochemical Assay (IC50), ADP-Glo, KHK-A; conditions: average of at least two separate assays
MEASURED QUANTITY: IC50 (nM)
Write down the numeric answer in nM and omit the unit.

- C[C@H]1CCN1c1nc2c(c(-c3ccc4[nH]nnc4c3)n1)CCC2: 29.1
- C[C@H]1[C@H](O)CN1c1nc(-c2ccc3c(c2)OC[C@@H]3NS(C)(=O)=O)c2c(n1)C(F)(F)CC2: 4
- C[C@H]1[C@H](O)CN1c1nc(-c2ccc3c(c2)COC[C@]32COC(=O)N2)c2c(n1)C(F)(F)CC2 (single isomer, unassigned): 42.1

Consider the additional compound presented here.
Prompt line: Which IC50 reading was recorded for the compound C[C@H]1[C@H](O)CN1c1nc(-c2ccc(OC3CC3)c(S(C)(=N)=O)c2)c2c(n1)C(F)(F)CC2 (stereo partly shown) ?
Response line: 0.9

---

molecular target: human KHK-A (Homo sapiens (Human), UniProt P50053); assay: KHK Biochemical Assay (IC50), ADP-Glo, KHK-A; settings: ADP-Glo; average of at least two separate assays
MEASURED QUANTITY: pIC50
In simple prose, pIC50 is minus the logarithm base ten of a concentration in moles per litre.

Here are 8 molecules together with their reported answers.
* C[C@H]1[C@H](O)CN1c1nc(-c2cc3c(c(S(N)(=O)=O)c2)OCC3)c2c(n1)C(F)(F)CC2 | 8.19
* C[C@H]1CCN1c1nc2c(c(-c3ccc4c(c3)C(=O)NCCO4)n1)CCC2 | 7.49
* COC(=O)Cc1cccc(-c2nc(N3CC[C@@H]3C)nc3c2CCC3)c1 | 6.92
* C[C@H]1CCN1c1nc2c(c(-c3ccc(N4CCNCC4)cc3)n1)CCC2 | 7.74
* C[C@H]1CCN1c1nc2c(c(-c3ccc(C(=O)N(C)C)cc3)n1)CCC2 | 6.82
* C[C@H]1CCN1c1nc(-c2ccc(C(N)=O)cc2)c2c(n1)C(F)(F)CCC2 | 6.90
* C[C@@H]1[C@@H](C)CN1c1nc2c(c(-c3ccc(C(N)=O)cc3)n1)CCC2 | 6.23
* C[C@H]1CCN1c1nc2c(c(-c3cc(F)c(C(N)=O)c(F)c3)n1)CCC2 | 7.50

Prompt line: Need pIC50, item C[C@H]1[C@H](O)CN1c1nc(-c2cccc(S(N)(=O)=O)c2)c2c(cnn2C)n1
Response line: 6.09

---

Each entry below carries its recorded EC50.
target: KHK-C expressed in NRK-52E cells (Homo sapiens (Human)); experiment: KHK-C Cell-based Assay (EC50), NRK CTG, fructose-mediated ATP-depletion
Entry rule: numbers only, all in nM.

Past entries and their recorded results:
• C[C@H]1CCN1c1nc2c(c(-c3cccc(CN(C)C)c3)n1)CCC2 = 27.5
• C[C@H]1[C@H](O)CN1c1nc(-c2ccc3c(c2)CC[C@]32CCC(=O)N2)c2c(n1)C(F)(F)CC2 (single isomer, unassigned) = 6.1

// below: EC50 requested for another compound
Prompt line: For the compound shown here, C[C@H]1CCN1c1nc2c(c(-c3ccc4c(c3)[C@]3(C[C@@H]3C(N)=O)C(=O)N4)n1)CCC2 (mixture of isomers) , give the reported EC50.
Response line: 750
